Quick reference: Henry solubility constant Hcp of the listed items.
# Test description: Henry solubility constant Hcp at 298.15 K (mol/(m3 Pa))
# Recorded conditions: reference: Pfeifer et al. (2001)
Please state the value as a number alone, without comment.

{"Smiles repr": "COc1c(Br)cc(Br)cc1Br", "Measured number": 0.013}
{"Smiles repr": "COc1c(Cl)cc(Cl)cc1Cl", "Measured number": 0.0046}
{"Smiles repr": "COc1c(Cl)c(Cl)cc(Br)c1Cl", "Measured number": 0.01}
{"Smiles repr": "COc1cc(Cl)c(Cl)cc1Cl", "Measured number": 0.011}
{"Smiles repr": "COc1c(Cl)cc(Br)cc1Cl", "Measured number": 0.012}

stdin: Which Henry solubility constant Hcp value is on record for "COc1c(Br)cc(Br)c(Cl)c1Br" ?
stdout: 0.0091

stdin: Follow-up item: "COc1c(Cl)c(Cl)c(Br)c(Cl)c1Cl"
stdout: 0.0092

stdin: And "COc1ccc(Cl)c(Cl)c1" ?
stdout: 0.0092

stdin: Now try "COc1c(Cl)ccc(Cl)c1Cl" .
stdout: 0.0098

src = Sander's compilation of Henry's law constants (doi:10.1007/s002160101077)
